inhibition overview
Experiment: growth suppression of yeast trafficking mutant, preliminary HTS, modulators of trafficking downstream of Golgi apparatus project, 1536-format plate, OD 615 nm (AID 637)
Settings: yeast transport mutant growth, absorbance 615 nm, 18 h; active compounds read high
Observation type: inhibition (%)

INSERT INTO measurements (molecule, observed_result) VALUES
  ('c1ccc(Cc2nn3c(Cn4cnc5ccccc54)nnc3s2)cc1', -0.65),
  ('CC(C)CC(OC(=O)c1cccs1)C(=O)NCc1ccco1 (centres undefined)', -4.13),
  ('O=C(Cn1c(=O)oc2ccccc21)N1CCN(c2ccccc2)CC1', 8.18),
  ('COc1ccc(OCCN2C(=O)NC(C)(c3ccc(C)cc3)C2=O)cc1 (centres undefined)', -4.03),
  ('COCc1[nH]nc2c1C(c1cc(OC)c(O)c(OC)c1)C(C#N)=C(N)O2 (centres undefined)', 4.03),
  ('CCOc1ccccc1-n1c(SCC(=O)NC2CCCC2)nnc1-c1ccoc1C', -4.92),
  ('CCOC(=O)COc1ccc(S(=O)(=O)N2CCc3ccccc3C2)cc1', 0.65),
  ('Clc1ccc(OCCCn2cncn2)cc1Cl', 16.4),
  ('Cc1ccc(CNC(=O)c2coc(=O)c3ccccc23)o1', -5.82),
  ('N#CC1=C(SCc2ccccc2)NC(=O)C(C#N)C12CCCC2 (centres undefined)', 1.9),
  ('CCCn1c(SCC(=O)Nc2ccccc2C(=O)OCC)nc2c1c(=O)n(C)c(=O)n2C', -3.02),
  ('N#Cc1nc(COc2ccccc2)oc1NCCN1CCOCC1', 10.5),
  ('COc1cc2c(=O)nc3n(c2cc1OC)C(c1ccccc1)N=C(N)N3 (centres undefined)', 20.2),
  ('CC(=O)SCCC(=O)Nc1ccccc1', 0.81),
  ('CCOC(=O)c1ccc(NC(=O)N2CCN(CCc3ccccc3)CC2)cc1', -0.32),
  ('O=C(O)CCN(CCC(=O)O)c1nnc(SCc2ccccc2)s1', -3.55),
  ('COC(=O)c1ccc(Oc2nc(NC(C)C)nc(N(C)C)n2)cc1', -2.46),
  ('Cc1ccc(OCc2nnc(SCC(=O)N3CCOCC3)n2C)cc1', -6.35),
  ('O=C(O)CCn1[nH]c(=O)ccc1=O', 1.77),
  ('CCOc1ccccc1NC(=O)CSc1nnc2c(CC)c(C)nc(N)n12', -0.91),
  ('Cn1cnnc1Sc1nc2c(c(=O)n(C)c(=O)n2C)n1C', -9.09),
  ('CCOc1ccc(-c2nc(C#N)c(N3CCN(C)CC3)o2)cc1', 11.3),
  ('COCc1nnc(NS(=O)(=O)c2ccc(Br)cc2)s1', -1.75),
  ('Cc1ccc(S(=O)(=O)N2CCCC2C(=O)OCc2ccco2)cc1 (centres undefined)', -7.62);

---

Below, each entry is listed alongside its reported inhibition.
Assay: growth suppression of yeast trafficking mutant, preliminary HTS, modulators of trafficking downstream of Golgi apparatus project, 1536-format plate, OD 615 nm (AID 637)
Conditions: yeast transport mutant growth, absorbance 615 nm, 18 h; active compounds read high
Observation type: inhibition (%)

INSERT INTO measurements (compound, observation_type, observed_result) VALUES
  ('CCCc1cc(N2CCCC2)n2nc(C)c(-c3ccccc3)c2n1', 'inhibition', 5.27),
  ('COc1nc(OC)nc(N2CCC(C(=O)NCc3cccs3)CC2)n1', 'inhibition', -9.51),
  ('CCCc1cc(-n2ccnc2)n2c(nc3ccccc32)c1C#N', 'inhibition', 2.06),
  ('Cn1c(-c2ccc(C(C)(C)C)cc2)n[nH]c1=S', 'inhibition', -2.13),
  ('COc1ccc(NC(=O)N2CCN(c3nc(-c4cccc(OC)c4)cs3)CC2)cc1', 'inhibition', -4.52),
  ('C/C(CC(O)(/C=N/O)c1ccccc1)=N\O (centres undefined)', 'inhibition', 3.77),
  ('N#CC(C(=O)C1CCCCC1)c1nc2ccccc2[nH]1 (centres undefined)', 'inhibition', 20.6),
  ('Nc1nc(N)c2nc(-c3ccccc3)c(N)nc2n1', 'inhibition', 1.5),
  ('COC(=O)c1oc2ccc(OC)cc2c1N', 'inhibition', -4.84),
  ('CN(C)S(=O)(=O)c1ccc(C(=O)N2CCCC2c2nc3ccccc3s2)cc1 (centres undefined)', 'inhibition', 3.93),
  ('CN1CCc2c(sc3c2c(=O)n(-c2ccccc2)c2nnc(SCc4ccccc4)n32)C1', 'inhibition', 1.82),
  ('c1cnc(NCCNc2ncccn2)nc1', 'inhibition', -3.82),
  ('CC(=O)Nc1cccc(NC(=O)C2CCCN2C(=O)Nc2ccc(C)cc2)c1 (centres undefined)', 'inhibition', -6.89),
  ('Cn1c(=O)[nH]c(=O)c2c1nc(N1CCOCC1)n2CC(O)COc1ccc2ccccc2c1 (centres undefined)', 'inhibition', -1.82),
  ('CC(=O)Nc1ccccc1O', 'inhibition', 4.5),
  ('CCOC(=O)C1CCN(C(=O)c2c(-c3c(Cl)cccc3Cl)noc2C)CC1', 'inhibition', -9.68),
  ('CC(=O)Nc1ccc(S(=O)(=O)N(CC(=O)O)Cc2ccccc2)cc1', 'inhibition', 7.14),
  ('CCCCN(CC)S(=O)(=O)N1CCC(C(=O)NCc2ccc(F)cc2)CC1', 'inhibition', 2.62),
  ('O=C(NC1CCCC1)C(c1cccs1)N(C(=O)c1ccno1)c1ccccc1 (centres undefined)', 'inhibition', 5.08),
  ('O=C1c2cccnc2C(=O)N1c1cccc(-c2nc3ccccc3o2)c1', 'inhibition', 3.65),
  ('CCn1c(SCC(=O)N2c3ccccc3CCc3ccccc32)nc2c1c(=O)n(C)c(=O)n2C', 'inhibition', -6.98),
  ('C=CCN1C(=O)/C(=C2/Sc3ccccc3N2C)SC1=Nc1c(C)n[nH]c1C', 'inhibition', 0.48),
  ('CC1=NS(=O)(=O)c2cc(Cl)ccc2N1', 'inhibition', 4.67),
  ('CCCOc1ccc2nc(NC(=O)OC)[nH]c2c1', 'inhibition', -1.5);

---

Test: HUVEC growth inhibition – cell-based, human, primary screen (AID 575);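 further: 100% = median of untreated cell wells with 0.1% DMSO on each plate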
Conditions: HUVEC proliferation, CellTiter-Glo luminescence, 72 h; at 10 µM; active compounds read low
Observation type: viability (%)

INSERT INTO results (compound, observed_result) VALUES
  ('CCCCCn1c(CN2CCN(c3cccc(Cl)c3)CC2)nc2c1c(=O)n(C)c(=O)n2C', 69.2),
  ('Cc1ccc(Cn2nnc(C(=O)Nc3cccc(C)c3C)c2N)cc1', 63.1),
  ('Cc1ccc(-c2nc(N)n(C(=O)c3cccnc3)n2)cc1', 95.1),
  ('Cc1ccc2nc(NC(=O)CN(C)S(=O)(=O)c3cccc4nsnc34)sc2c1', 18.1),
  ('O=C(c1cc(-c2ccco2)nn1-c1cccc(Cl)c1)N1CCCCC1', 95),
  ('COc1cc2c(cc1OC)C(/C(C#N)=N\O)=NC(C)(C)C2', 107),
  ('Brc1ccc2[nH]c3nc(SCCN4CCOCC4)nnc3c2c1', 89.8),
  ('CNc1ccc(C(O)(C(F)(F)F)C(F)(F)F)cc1C(O)(C(F)(F)F)C(F)(F)F', 76.8),
  ('CCCc1cc(=O)[nH]c(=S)[nH]1', 97),
  ('Clc1ccc2c(c1)[C@H]1OCC[C@H]1[C@@H](c1ccco1)N2', 89.6),
  ('COc1cc(C(=O)Nc2cc(C)ccn2)cc(OC)c1OC', 89.5),
  ('Cc1cccc(N(C)C(=S)Oc2ccc3ccccc3c2)c1', 109),
  ('CCCCOC(=O)C1=C(C)Nc2ncnn2C1c1cccc(OC)c1OC (stereo not given)', 95),
  ('CC(C)OC(=O)C1C2C=CC3(CN(Cc4cccs4)C(=O)C13)O2 (stereo not given)', 96.7),
  ('Cc1nc(N)[nH]c(=O)c1CCC(=O)OCC(C)C', 89.7),
  ('N/C(Cn1nnc(-c2ccccc2)n1)=N\O', 112),
  ('Cc1ccnc(N2CCN(C(=O)CSc3nc4ccccc4nc3N3CCCCC3)CC2)c1', 62),
  ('O=P1(O)C=C(c2ccccc2)NC(c2ccccc2)=C1', 108),
  ('CC1=C(C(=O)OC2CCCCC2)C(c2ccc(C)o2)C2=C(CC(C)(C)CC2=O)N1 (stereo not given)', 50.5),
  ('CCn1c(=N)n(CC(=O)C23CC4CC(CC(C4)C2)C3)c2ccccc21', 4.87),
  ('COc1ccccc1-c1nc2n(n1)C(c1ccc(Cl)cc1)C(C(N)=O)=C(C)N2 (stereo not given)', 89.8),
  ('O=C(Nc1ccon1)c1cc(-c2ccccc2)nc2ccccc12', 104),
  ('C=CCN=C1SCC(=O)N1S(=O)(=O)c1ccc(C)cc1', 89.1),
  ('Cc1ccc(C2=Nc3ccccc3NC(C)(c3ccc(C)o3)C2)o1 (stereo not given)', 79),
  ('COC(=O)C1=C(C)N(c2ccc(C(=O)OC)cc2)C(=O)C1', 86.9),
  ('COc1ccc(OC)c(S(=O)(=O)N2CCC(C(=O)NCc3ccccc3OC)CC2)c1', 97.5),
  ('O=C(NCC(c1cccnc1)N1CCN(c2ccc(F)cc2)CC1)OCc1ccccc1 (stereo not given)', 85),
  ('CC(=O)Nc1ccccc1O', 102),
  ('Cc1cc(=O)n2[nH]c(-c3ccc(Cl)cc3)cc2n1', 75.8),
  ('CCn1nnnc1SCC(=O)N1c2ccccc2CCc2ccccc21', 99.1),
  ('Cc1cc(C(=O)CSc2nnc(-c3ccccc3)n2C)c(C)n1C', 107),
  ('COC(=O)c1ccc(-c2ccco2)n1Cc1nc(-c2ccc(OC)c(OC)c2)oc1C', 25.9),
  ('CCCCC(=O)O[C@H]1CC[C@H]2[C@@H]3CCc4cc(O)ccc4[C@H]3CC[C@]12C', 1.94),
  ('O=C(CCn1c(=O)sc2ccccc21)NCc1ccc2c(c1)OCO2', 111),
  ('C=CCn1c(SCC#N)nc2c(c1=O)C(C)(C)Cc1ccccc1-2', 76.2),
  ('Cn1c2c(c(=O)[nH]c1=O)C(NC(=O)c1ccco1)(C(F)(F)F)C(=O)N2 (stereo not given)', 93.3),
  ('O=C(COc1ccc(S(=O)(=O)NC2CCCCC2)cc1)NCc1ccccn1', 102),
  ('Cc1nn(Cc2ccccc2)c2c1C(c1ccncc1)C(C#N)=C(N)O2 (stereo not given)', 86),
  ('COc1ccc(Nc2nc(-c3sc(N)nc3C)cs2)cc1', 92.9),
  ('CCOC(=O)CSC1=C(C#N)C(c2ccc(Cl)cc2)C(C(=O)OC)C(=O)N1 (stereo not given)', 85.4),
  ('Cc1ccc(NC(=O)CC2C(=O)NC3CCCCC3N2C(=O)c2ccc(F)cc2)cc1C (stereo not given)', 100),
  ('CCOC(=O)c1ccc(NS(=O)(=O)c2ccc3c(c2)CCCN3C(C)=O)cc1', 104),
  ('CC(C)C(c1nnnn1C1CCCC1)N1CCN(C(=O)c2ccco2)CC1 (stereo not given)', 82.1),
  ('Cc1cccc(NC(=O)C2CCCN(C(=O)Nc3ccccc3)C2)c1C (stereo not given)', 102),
  ('COc1ccc(Cn2nnnc2CN2CCOCC2)cc1', 97.4);
